Experiment: Crocetin content of plasma sample by SERS and liquid phase determination
Assay type: in vivo
Settings: SD, rat, oral, 4.5 mg kg^−1, 0.5 h medium-dose plasma, AgNPs, peak 1,532 cm^-1, read-out: crocetin content in plasma by SERS
Measurement Type: concentration at 0.5 h (ng/mL)
Your answer is read as ng/mL, so omit the unit and give the number.

Sure, the documented concentration at 0.5 h for `CC(/C=C/C=C(\C)C(=O)O)=C\C=C\C=C(C)\C=C\C=C(/C)C(=O)O` is 433

* * *

Test: Crocetin content of plasma sample by SERS and liquid phase determination
Assay type: in vivo
Conditions: SD, rat, oral, 4.5 mg kg^−1, 0.5 h medium-dose plasma, same sample, read-out: crocetin content in plasma by liquid phase determination
Measurement Type: concentration at 0.5 h

For reference, reported concentration at 0.5 h for `CC(/C=C/C=C(\C)C(=O)O)=C\C=C\C=C(C)\C=C\C=C(/C)C(=O)O` stands at 486 ng/mL

// data source = paper PMC11903455
